Where do the numbers come from? From patent US10618964B2.

# System Name: native soluble IL-6R in human plasma (human, UniProt P08887)
# Test Description: ELISA 1, periplasmic extract; competitor IL-6; human plasma
Property Measured: OD450 ratio sample/blank
API note: the answer field is a bare number with no unit suffix.

Item IL6RPMP101G4 (VHH) VHH: EVQLVESGGGLVQAGGSLRLSCAASGFAFDDYAIGWFRQAPGKEREGVSSISSSNGNTYYADSVRGRFTISSDNAKNTVYLQMNSLKPEDTGVYYCAAIWGIFFNEKMPVGAYDYWGQGTQVTVSS : provide OD450 ratio sample/blank 0.796

Consider the binder IL6RPMP103C7 (VHH) VHH: EVQLVESGGGLVQAGGSLSLSCATSGRTISDDTMAWFRQAPGKEREFVATITFSGARTHYSDSVRDRFTISRDNAKNTVYLQMDSLKSEDTAVYYCAASTKYYSSTYNYIHPAFYDIWGQGTQVTVSS and give its recorded OD450 ratio sample/blank. 0.413
